Endpoint summary: IC50, system: Transitional endoplasmic reticulum ATPase (Homo sapiens, UniProt P55072), multiple sources combined.
Sequence (P55072 whole entry): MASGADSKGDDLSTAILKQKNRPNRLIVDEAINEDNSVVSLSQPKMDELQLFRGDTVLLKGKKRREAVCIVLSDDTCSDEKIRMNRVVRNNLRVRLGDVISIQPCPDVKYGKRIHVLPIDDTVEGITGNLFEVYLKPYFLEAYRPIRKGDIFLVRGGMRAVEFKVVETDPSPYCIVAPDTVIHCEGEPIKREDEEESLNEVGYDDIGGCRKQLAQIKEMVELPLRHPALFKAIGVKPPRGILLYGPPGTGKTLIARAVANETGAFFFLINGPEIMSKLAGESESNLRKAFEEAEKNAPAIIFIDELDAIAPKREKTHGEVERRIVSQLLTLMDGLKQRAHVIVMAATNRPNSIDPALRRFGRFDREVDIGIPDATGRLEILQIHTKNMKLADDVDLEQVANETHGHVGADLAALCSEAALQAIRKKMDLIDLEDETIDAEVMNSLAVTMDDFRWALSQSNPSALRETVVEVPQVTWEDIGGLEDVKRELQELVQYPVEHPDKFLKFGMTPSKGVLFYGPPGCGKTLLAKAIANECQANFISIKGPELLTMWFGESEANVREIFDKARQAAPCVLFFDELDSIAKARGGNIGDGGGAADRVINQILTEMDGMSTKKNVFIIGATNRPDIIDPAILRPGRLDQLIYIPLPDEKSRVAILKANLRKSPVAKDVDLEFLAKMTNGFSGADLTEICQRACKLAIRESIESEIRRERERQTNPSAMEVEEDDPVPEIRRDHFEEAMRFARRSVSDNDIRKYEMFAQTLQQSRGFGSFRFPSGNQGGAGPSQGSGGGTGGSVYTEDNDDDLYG

Batch of 5 compounds: report IC50 for each.
1. NC(=O)c1cccc2c1cc(C1CC1)n2-c1nc2c(c(NCc3ccccc3)n1)COCC2
2. NC(=O)c1cccc2c1cc(CO)n2-c1nc2c(c(NCc3ccccc3)n1)COCC2
3. COc1nc2c(C(=O)O)cccc2n1-c1nc2c(c(NCc3ccccc3)n1)CCCC2
4. COCCOc1cccc2c(NCc3ccccc3)nc(-n3c(CN)nc4c(C(N)=O)cccc43)nc12
5. Cc1cc2ccccc2n1-c1nc2c(c(NCc3ccccc3)n1)CNCC2

Result:
1. < 30 nM
2. < 100 nM
3. < 30 nM
4. < 1000 nM
5. < 300 nM

Provide the reported IC50 of each entry below, same order.
1. Cc1cc(OCc2c(Br)nc(SC3C=CCCC3)n2-c2cccnc2)ccc1C#CCO (centres unmarked)
2. Fc1cc(OCc2cnc(SC3C=CCCC3)n2-c2cccnc2)ccc1Br (centres unmarked)
3. Cc1nnc(-n2c(C)cc3c(C(N)=O)cccc32)nc1NCc1cccc(F)c1

Result:
1: 50 nM; 2: 130 nM; 3: < 1000 nM

---

// cross-source set; read-out = IC50; system = Transitional endoplasmic reticulum ATPase (Homo sapiens, UniProt P55072)

Below, each entry is followed by its recorded IC50 result.
>  <molecule>
Cc1cc(OCc2cnc(SC3C=CCCC3)n2-c2cccnc2)ccc1Cl (centres unmarked)

>  <experimental.target>
Transitional endoplasmic reticulum ATPase (Homo sapiens, UniProt P55072)

>  <IC50>
160 nM

$$$$
>  <molecule>
Cc1cc2c(S(N)(=O)=O)cccc2n1-c1nc2c(c(NCc3ccccc3)n1)CCCC2

>  <experimental.target>
Transitional endoplasmic reticulum ATPase (Homo sapiens, UniProt P55072)

>  <IC50>
< 100 nM

$$$$
>  <molecule>
COc1cccc2c(NCc3ccccc3)nc(-n3c(C)cc4ccccc43)nc12

>  <experimental.target>
Transitional endoplasmic reticulum ATPase (Homo sapiens, UniProt P55072)

>  <IC50>
< 100 nM

$$$$

State the recorded IC50 for every item in the following list.
1. CNC(=O)c1cccc2c1cc(C)n2-c1nc2c(c(NCc3ccccc3)n1)CCCC2
2. Cc1cc(OCc2cnc(CC3CCCC3)n2-c2cccnc2)ccc1C#CCOC(=O)NC1CCN(C)CC1

Result:
1: < 30 nM; 2: 50 nM

Required: IC50, one value per molecule below.
1. COC(=O)Cn1ncc(-c2cc(F)c(OCc3nnc(SC4C=CCCC4)n3-c3cccnc3)cc2F)n1 (centres unmarked)
2. Cc1oc2c(C(N)=O)cccc2c1-c1nc2c(c(NCc3cccc(F)c3)n1)COCC2
3. Cc1cc2c(C#N)cccc2n1-c1nc2c(c(NCc3ccccc3)n1)CNCC2

Result:
1: < 50 nM; 2: < 1000 nM; 3: < 100 nM

---

Literature roundup of Transitional endoplasmic reticulum ATPase (Homo sapiens) data, read-out pIC50.
pIC50: −log10 of the molar value.

# count of solved cases: 5
>  <compound>
CN(C)Cc1cc2c(C(N)=O)cccc2n1-c1nc2c(c(NCc3ccccc3)n1)COCC2

>  <experimental.target>
Transitional endoplasmic reticulum ATPase (Homo sapiens)

>  <experimental.value>
> 6.00

$$$$
>  <compound>
CN1CCC(NC(=O)Cn2ncc(-c3cc(F)c(OCc4nnc(SC5C=CCCC5)n4-c4cccnc4)cc3F)n2)CC1 (centres unmarked)

>  <experimental.target>
Transitional endoplasmic reticulum ATPase (Homo sapiens)

>  <experimental.value>
> 7.30

$$$$
>  <compound>
COCCNC(=O)OCC#Cc1ccc(OCc2cnc(SC3C=CCCC3)n2-c2cccnc2)cc1C (centres unmarked)

>  <experimental.target>
Transitional endoplasmic reticulum ATPase (Homo sapiens)

>  <experimental.value>
7.41

$$$$
>  <compound>
[2H]C1([2H])C([2H])([2H])C([2H])([2H])C([2H])(Sc2ncc(COc3cc(Cl)c(C#CCO)cc3Cl)n2-c2cccnc2)C1([2H])[2H]

>  <experimental.target>
Transitional endoplasmic reticulum ATPase (Homo sapiens)

>  <experimental.value>
6.70

$$$$
>  <compound>
CCCN1CCc2nc(-n3c(C)cc4ccccc43)nc(NCc3ccccc3)c2C1

>  <experimental.target>
Transitional endoplasmic reticulum ATPase (Homo sapiens)

>  <experimental.value>
> 6.00

$$$$

Can you give me pIC50 for all of these, one by one?
1. Cc1cc2c(CN)cccc2n1-c1nc(NCc2ccccc2)c2c(n1)OCCC2
2. CC(C)(C)OC(=O)N1CCN(CCn2ncc(-c3cc(F)c(OCc4nnc(SC5C=CCCC5)n4-c4cccnc4)cc3F)n2)CC1 (centres unmarked)
3. COC(=O)/C=C/c1nc(SC2CCCC2)n(-c2cccnc2)c1COc1ccc(C#CCO)c(C)c1
4. [2H]C1([2H])C([2H])([2H])C([2H])([2H])C([2H])(Sc2nc(Br)c(COc3ccc(C#CCO)c(C)c3)n2-c2cccnc2)C1([2H])[2H]
5. [2H]C1([2H])C([2H])([2H])C([2H])([2H])C([2H])(Sc2ncc(COc3cc(F)c(C#CCOC(=O)NC4CCN(C)CC4)c(F)c3)n2-c2cccnc2)C1([2H])[2H]
6. Cc1cc2ccccc2n1-c1nc(NCc2ccccc2)c2cccc(CN)c2n1
7. Cc1cc(OCc2cnc(SC3C=CCCC3)n2-c2cccnc2)ccc1C#CCOC(=O)NC1CCN(C)CC1 (centres unmarked)
8. Cc1cc(OCc2cnc(SC(C)C)n2-c2cccnc2)ccc1C#CCOC(=O)NCCN1CCN(C(C)C)CC1

Result:
["> 6.52", "> 7.00", 6.96, 7.54, 7.72, "> 6.00", 7.85, 7.00]

---

Ok so here's the combined literature set: IC50 for Transitional endoplasmic reticulum ATPase (Homo sapiens, UniProt P55072).

Worked cases, answers included:
>  <compound>
N#Cc1cccc2c1nc(CN)n2-c1nc2c(c(NCc3ccccc3)n1)CCCC2

>  <IC50>
< 1000 nM

$$$$
>  <compound>
COc1nc2c(C(N)=O)cccc2n1-c1nc(NCc2ccccc2)c2c(n1)OCCC2

>  <IC50>
< 30 nM

$$$$
>  <compound>
Cc1cc2c(C(=N)N)cccc2n1-c1nc2c(c(NCc3ccccc3)n1)COCC2

>  <IC50>
< 1000 nM

$$$$
>  <compound>
NC(=O)c1cccc2c1cc(C1CC1)n2-c1nc2c(c(NCc3ccccc3)n1)CCCC2

>  <IC50>
< 30 nM

$$$$
>  <compound>
NC(=O)c1cccc2c1cnn2-c1nc2c(c(NCc3cccc(F)c3)n1)CCCC2

>  <IC50>
< 100 nM

$$$$
>  <compound>
Oc1nc2ccccc2n1-c1nc2c(c(NCc3ccccc3)n1)CCCC2

>  <IC50>
< 1000 nM

$$$$
>  <compound>
CN1CCN(C(=O)OCCn2ncc(-c3cc(F)c(OCc4nnc(S[C@H]5C=CCCC5)n4-c4cccnc4)cc3F)n2)CC1

>  <IC50>
< 100 nM

$$$$
>  <compound>
NC(=O)c1cccc2c1cnn2-c1nc2c(c(NCc3ccccc3)n1)CCCC2

>  <IC50>
< 30 nM

$$$$

Batch of 2 compounds: report IC50 for each.
1. Cc1nc2c(C(N)=O)cccc2n1-c1nc2c(c(NCc3ccccc3)n1)COCC2
2. COC(=O)Cn1ncc(-c2cc(F)c(OCc3nnc(S[C@H]4C=CCCC4)n3-c3cccnc3)cc2F)n1

Result:
["< 100 nM", "< 50 nM"]

Provide each entry's IC50 from the list below.
1. Cc1cc(OCc2cnc(SC3C=CCCC3)n2-c2cccnc2)ccc1C#CCOC(=O)NCCN1CCOCC1 (stereo not shown)
2. [2H]C1([2H])C([2H])([2H])C([2H])([2H])C([2H])(Sc2ncc(COc3cc(Cl)c(C#CCOC(=O)NC4CCN(C)CC4)cc3Cl)n2-c2cccnc2)C1([2H])[2H]
3. Cc1cc(OCc2c(Cl)nc(SC3C=CCCC3)n2-c2cccnc2)ccc1-c1ccc(S(C)(=O)=O)cc1 (stereo not shown)
4. CN1CCN(C(=O)Cn2ncc(-c3cc(F)c(OCc4nnc(S[C@H]5C=CCCC5)n4-c4cccnc4)cc3F)n2)CC1

Result:
1. 36 nM
2. 60 nM
3. 37 nM
4. < 50 nM

I have 2 compounds here; please give me IC50 for each one.
1. CC(C)c1cc2c(C(N)=O)cccc2n1-c1nc2c(c(NCc3ccccc3)n1)CCCC2
2. [2H]C1([2H])C([2H])([2H])C([2H])([2H])C([2H])(Sc2nnc(COc3cc(F)c(-c4cnn(CC(=O)N5CCN(C(=O)OC(C)(C)C)CC5)n4)cc3F)n2-c2cccnc2)C1([2H])[2H]

Result:
["< 100 nM", "< 50 nM"]
